- SYSTEM: dopaminergic D2 receptor (Homo sapiens)
- Sequence (P14416 1-414 isoform P14416-2): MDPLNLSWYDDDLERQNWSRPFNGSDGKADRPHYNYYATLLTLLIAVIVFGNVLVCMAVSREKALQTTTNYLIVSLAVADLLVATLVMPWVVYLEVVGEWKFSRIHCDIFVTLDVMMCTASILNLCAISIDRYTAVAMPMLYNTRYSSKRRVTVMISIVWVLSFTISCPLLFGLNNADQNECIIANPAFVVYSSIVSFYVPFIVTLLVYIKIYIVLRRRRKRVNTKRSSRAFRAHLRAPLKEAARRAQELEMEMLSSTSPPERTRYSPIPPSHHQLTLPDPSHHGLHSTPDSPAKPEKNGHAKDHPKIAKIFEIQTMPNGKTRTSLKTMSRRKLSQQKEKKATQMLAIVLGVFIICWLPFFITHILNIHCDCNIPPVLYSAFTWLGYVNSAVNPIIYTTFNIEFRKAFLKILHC
- METHOD NOTES: Binding assay D2S (h), [3H]methyl-spiperone, HEK-293 cells
- Set-up: expressed in transfected cells; host or cells: HEK-293 cells
- SETUP CONDITIONS: read-out: D2 [%]
For each of the compounds below, state its inhibition at 1 µM.
Quick reminder: number only, in %, skip the unit.

Prompt: What inhibition at 1 µM value was documented for this compound, O=S(=O)(NCCCCN1CCN(c2noc3ccccc23)CC1)c1ccc(Cl)cc1 ?
Completion: 88

Prompt: What inhibition at 1 µM value was documented for this compound, Cc1cccc(S(=O)(=O)NCCCCN2CCN(c3noc4ccccc34)CC2)c1 ?
Completion: 90

Prompt: What inhibition at 1 µM value was documented for this compound, O=S(=O)(NCCCN1CCN(c2nsc3ccccc23)CC1)c1cccc(O)c1 ?
Completion: 87

Prompt: What inhibition at 1 µM value was documented for this compound, O=S(=O)(NCCCN1CCN(c2cccc3c2OCCO3)CC1)c1ccc(F)cc1 ?
Completion: 40

Prompt: What inhibition at 1 µM value was documented for this compound, Cc1cccc(S(=O)(=O)NCCCN2CCN(c3cccc4c3OCCO4)CC2)c1 ?
Completion: 48

Prompt: What inhibition at 1 µM value was documented for this compound, O=S(=O)(NCCCCN1CCN(c2noc3ccccc23)CC1)c1ccc2cc(Cl)ccc2c1 ?
Completion: 99

Prompt: What inhibition at 1 µM value was documented for this compound, O=S(=O)(NCCCN1CCN(c2cccc3c2OCCO3)CC1)c1cccc2ccccc12 ?
Completion: 68

----------
- SYSTEM: dopaminergic D3 receptor (Homo sapiens, UniProt P35462)
- Sequence (P35462 whole entry): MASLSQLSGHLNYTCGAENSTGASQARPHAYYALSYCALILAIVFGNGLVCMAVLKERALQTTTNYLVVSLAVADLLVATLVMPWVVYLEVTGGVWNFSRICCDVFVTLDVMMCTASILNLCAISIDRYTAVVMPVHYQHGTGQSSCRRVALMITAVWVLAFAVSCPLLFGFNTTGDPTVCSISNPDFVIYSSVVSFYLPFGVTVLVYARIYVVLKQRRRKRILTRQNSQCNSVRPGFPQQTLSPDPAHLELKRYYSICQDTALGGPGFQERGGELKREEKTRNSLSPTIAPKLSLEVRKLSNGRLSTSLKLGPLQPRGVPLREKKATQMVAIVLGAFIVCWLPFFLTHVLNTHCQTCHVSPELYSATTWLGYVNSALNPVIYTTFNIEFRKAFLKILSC
- METHOD NOTES: Binding assay D3 (h), [3H]methyl-spiperone, CHO cells
- Set-up: expressed in transfected cells; host or cells: CHO cells
- SETUP CONDITIONS: read-out: D3 [%]
READOUT KIND: inhibition at 1 µM (%)
Quick reminder: number only, in %, skip the unit.

Prompt: What value of inhibition at 1 µM on dopaminergic D3 receptor (Homo sapiens, UniProt P35462) does O=S(=O)(NCCCN1CCN(c2nsc3ccccc23)CC1)c1ccc(Cl)c(Cl)c1 have?
Completion: 97

Prompt: What value of inhibition at 1 µM on dopaminergic D3 receptor (Homo sapiens, UniProt P35462) does O=S(=O)(NCCCCN1CCC(c2noc3cc(F)ccc23)CC1)c1cnc2ccccn12 have?
Completion: 93

Prompt: What value of inhibition at 1 µM on dopaminergic D3 receptor (Homo sapiens, UniProt P35462) does O=S(=O)(NCCCCN1CCN(c2noc3ccccc23)CC1)c1ccc2cn[nH]c2c1 have?
Completion: 85

----------
- SYSTEM: dopaminergic D3 receptor (Homo sapiens, UniProt P35462)
- METHOD NOTES: Binding assay D3 (h), [3H]methyl-spiperone, CHO cells
- Design: expressed in transfected cells; host or cells: CHO cells
- SETUP CONDITIONS: read-out: D3 [%]
READOUT KIND: inhibition at 1 µM (%)
Quick reminder: number only, in %, skip the unit.

Prompt: What inhibition at 1 µM value was documented for this compound, O=S(=O)(NCCCN1CCC(c2noc3cc(F)ccc23)CC1)c1cccc2scnc12 [Compound 351] ?
Completion: 103

Prompt: What inhibition at 1 µM value was documented for this compound, O=S(=O)(NCCCCN1CCN(c2nsc3ccccc23)CC1)c1csc2ccccc12 [Compound 240] ?
Completion: 99

Prompt: What inhibition at 1 µM value was documented for this compound, O=S(=O)(NCCCCN1CC=C(c2c[nH]c3ccc(F)cc23)CC1)c1cccc(O)c1 [Compound 434] ?
Completion: 98

Prompt: What inhibition at 1 µM value was documented for this compound, Cc1[nH]c2ccc(Cl)cc2c1C1=CCN(CCCNS(=O)(=O)c2ccc(F)cc2)CC1 [Compound 443] ?
Completion: 71

Prompt: What inhibition at 1 µM value was documented for this compound, O=S(=O)(NCCCCN1CCC(c2noc3cc(F)ccc23)CC1)c1cccc(Br)c1 [Compound 109] ?
Completion: 99

Prompt: What inhibition at 1 µM value was documented for this compound, O=c1[nH]c2cccc(N3CCN(CCCCNS(=O)(=O)c4cccc(Cl)c4)CC3)c2[nH]1 [Compound 173] ?
Completion: 98

Prompt: What inhibition at 1 µM value was documented for this compound, O=S(=O)(NCCCN1CCN(c2nsc3ccccc23)CC1)c1ccc(OC(F)(F)F)cc1 [Compound 259] ?
Completion: 85

Prompt: What inhibition at 1 µM value was documented for this compound, O=S(=O)(NCCCCN1CCN(c2noc3ccccc23)CC1)c1cccc(Cl)c1 [Compound 85] ?
Completion: 77

Prompt: What inhibition at 1 µM value was documented for this compound, Cc1c(S(=O)(=O)NCCCN2CCC(c3noc4cc(F)ccc34)CC2)sc2ccc(Cl)cc12 [Compound 348] ?
Completion: 102

Prompt: What inhibition at 1 µM value was documented for this compound, O=S(=O)(NCCCN1CCC(c2noc3cc(F)ccc23)CC1)c1ccc2c(c1)OCCO2 [Compound 355] ?
Completion: 97

Prompt: What inhibition at 1 µM value was documented for this compound, O=S(=O)(NCCCCN1CCN(c2noc3ccccc23)CC1)c1ccc(Br)cc1 [Compound 274] ?
Completion: 91

----------
For each of the molecules below, state its activation at 1 µM.
- SYSTEM: serotoninergic 5-HT7 receptor (Homo sapiens)
- METHOD NOTES: Cellular functional assay, serotoninergic 5-HT7 receptor (agonism/antagonism)
- Format: cell-based
- SETUP CONDITIONS: agonist effect, percent of control specific agonist response; compounds tested at 1×10^−6M; read-out: 5-HT7-ag [%]
Quick reminder: number only, in %, skip the unit.

Prompt: What activation at 1 µM value was documented for this molecule, O=S(=O)(NCCCCN1CCN(c2cccc3[nH]ccc23)CC1)c1ccccc1 [Compound 27] ?
Completion: 5

Prompt: What activation at 1 µM value was documented for this molecule, Cc1c(S(=O)(=O)NCCCCN2CCC(c3noc4cc(F)ccc34)CC2)sc2ccc(F)cc12 [Compound 101] ?
Completion: -2

Prompt: What activation at 1 µM value was documented for this molecule, O=S(=O)(NCCCCN1CCN(c2noc3ccccc23)CC1)c1ccc2cc(Cl)ccc2c1 [Compound 79] ?
Completion: -2

Prompt: What activation at 1 µM value was documented for this molecule, O=S(=O)(NCCCCN1CCC(c2noc3cc(F)ccc23)CC1)c1ccc(Br)cc1 [Compound 298] ?
Completion: -3

Prompt: What activation at 1 µM value was documented for this molecule, O=S(=O)(NCCCCN1CCN(c2nsc3ccccc23)CC1)c1cccc2ccccc12 [Compound 1] ?
Completion: -1

Prompt: What activation at 1 µM value was documented for this molecule, O=c1[nH]c2cccc(N3CCN(CCCNS(=O)(=O)c4ccc5ccccc5c4)CC3)c2[nH]1 [Compound 424] ?
Completion: 18

Prompt: What activation at 1 µM value was documented for this molecule, O=S(=O)(NCCCCN1CCN(c2cccc3[nH]ccc23)CC1)c1cc2ccc(Cl)cc2s1 [Compound 363] ?
Completion: 6

Prompt: What activation at 1 µM value was documented for this molecule, O=S(=O)(NCCCN1CCC(c2noc3cc(F)ccc23)CC1)c1cccc2ccccc12 [Compound 20] ?
Completion: -1

Prompt: What activation at 1 µM value was documented for this molecule, O=S(=O)(NCCCCN1CCN(c2cccc3[nH]ccc23)CC1)c1cccc(Cl)c1 [Compound 113] ?
Completion: 9

Prompt: What activation at 1 µM value was documented for this molecule, Cc1c(S(=O)(=O)NCCCCN2CCN(c3noc4ccccc34)CC2)sc2ccc(F)cc12 [Compound 81] ?
Completion: -2

----------
- SYSTEM: serotoninergic 5-HT7 receptor (Homo sapiens, UniProt P34969)
- Sequence (P34969 whole entry): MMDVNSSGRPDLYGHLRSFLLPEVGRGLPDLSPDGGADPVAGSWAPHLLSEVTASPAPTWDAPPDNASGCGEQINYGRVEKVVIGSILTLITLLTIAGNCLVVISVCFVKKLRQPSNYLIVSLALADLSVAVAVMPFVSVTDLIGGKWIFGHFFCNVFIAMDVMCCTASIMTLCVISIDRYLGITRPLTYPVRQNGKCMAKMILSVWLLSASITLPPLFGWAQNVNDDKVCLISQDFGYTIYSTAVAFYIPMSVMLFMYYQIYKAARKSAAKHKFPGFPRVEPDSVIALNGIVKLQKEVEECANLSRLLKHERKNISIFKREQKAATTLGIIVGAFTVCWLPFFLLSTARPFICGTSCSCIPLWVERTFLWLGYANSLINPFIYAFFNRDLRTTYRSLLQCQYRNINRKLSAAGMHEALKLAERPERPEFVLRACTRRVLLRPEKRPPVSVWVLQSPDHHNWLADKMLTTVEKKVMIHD
- METHOD NOTES: Binding assay 5-HT7 (h), [3H]LSD, CHO cells
- Set-up: expressed in transfected cells; host or cells: CHO cells
- SETUP CONDITIONS: read-out: 5-HT7
READOUT KIND: inhibition at 1 µM (%)
Quick reminder: number only, in %, skip the unit.

Prompt: What inhibition at 1 µM value was documented for this compound, O=S(=O)(NCCCCN1CCC(c2noc3cc(F)ccc23)CC1)c1ccc(F)cc1 ?
Completion: 94

Prompt: What inhibition at 1 µM value was documented for this compound, O=S(=O)(NCCCCN1CCN(c2noc3ccccc23)CC1)c1ccc(Br)cc1 ?
Completion: 83

Prompt: What inhibition at 1 µM value was documented for this compound, O=S(=O)(NCCCN1CCC(c2noc3cc(F)ccc23)CC1)c1cccc(Cl)c1 ?
Completion: 91

Prompt: What inhibition at 1 µM value was documented for this compound, O=S(=O)(NCCCN1CCN(c2cccc3c2OCCO3)CC1)c1cccc(F)c1 ?
Completion: 91

Prompt: What inhibition at 1 µM value was documented for this compound, O=S(=O)(NCCCN1CCC(c2noc3cc(F)ccc23)CC1)c1ccc(OC(F)(F)F)cc1 ?
Completion: 92

Prompt: What inhibition at 1 µM value was documented for this compound, Cn1ccc2ccc(S(=O)(=O)NCCCCN3CCC(c4noc5cc(F)ccc45)CC3)cc21 ?
Completion: 95

Prompt: What inhibition at 1 µM value was documented for this compound, O=S(=O)(NCCCCN1CCN(c2nsc3ccccc23)CC1)c1ccc(F)cc1 ?
Completion: 92

Prompt: What inhibition at 1 µM value was documented for this compound, Cc1cccc(S(=O)(=O)NCCCN2CCN(c3cccc4[nH]c(=O)[nH]c34)CC2)c1 ?
Completion: 85

Prompt: What inhibition at 1 µM value was documented for this compound, O=S(=O)(NCCCCN1CCN(c2cccc3[nH]ccc23)CC1)c1c[nH]c2ncccc12 ?
Completion: 87

Prompt: What inhibition at 1 µM value was documented for this compound, O=S(=O)(NCCCCN1CCN(c2nsc3ccccc23)CC1)c1cccc2ccccc12 ?
Completion: 96

Prompt: What inhibition at 1 µM value was documented for this compound, O=S(=O)(NCCCN1CCN(c2nsc3ccccc23)CC1)c1cccc2ccccc12 ?
Completion: 98
